target: 3',5'-cyclic-AMP phosphodiesterase 4D (Homo sapiens, UniProt Q08499); experiment: Binding affinity to recombinant PDE4D by surface plasmon resonance assay
Sequence (Q08499 whole entry): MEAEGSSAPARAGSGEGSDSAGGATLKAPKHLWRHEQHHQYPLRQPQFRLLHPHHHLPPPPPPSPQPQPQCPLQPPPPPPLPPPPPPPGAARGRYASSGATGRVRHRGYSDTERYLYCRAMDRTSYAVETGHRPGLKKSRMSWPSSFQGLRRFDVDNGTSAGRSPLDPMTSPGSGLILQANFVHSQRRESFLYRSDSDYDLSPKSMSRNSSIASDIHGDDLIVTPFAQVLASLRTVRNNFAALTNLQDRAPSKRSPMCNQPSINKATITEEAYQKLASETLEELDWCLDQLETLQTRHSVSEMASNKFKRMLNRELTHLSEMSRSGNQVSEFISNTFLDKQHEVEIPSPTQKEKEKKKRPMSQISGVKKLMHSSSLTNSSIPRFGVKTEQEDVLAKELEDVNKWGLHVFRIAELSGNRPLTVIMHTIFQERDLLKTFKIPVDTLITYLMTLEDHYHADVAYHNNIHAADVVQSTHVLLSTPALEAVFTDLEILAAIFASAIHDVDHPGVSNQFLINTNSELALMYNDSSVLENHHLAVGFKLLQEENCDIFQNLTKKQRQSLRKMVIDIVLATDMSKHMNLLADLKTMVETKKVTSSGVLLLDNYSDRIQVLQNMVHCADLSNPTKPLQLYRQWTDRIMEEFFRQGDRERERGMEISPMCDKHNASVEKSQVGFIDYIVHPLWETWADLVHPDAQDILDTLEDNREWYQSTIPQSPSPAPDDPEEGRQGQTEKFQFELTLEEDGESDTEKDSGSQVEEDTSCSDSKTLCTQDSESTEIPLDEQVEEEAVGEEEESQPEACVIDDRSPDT

{"input smiles": "C=CCC(=C)/C=C/[C@@](C)(O)[C@H]1O[C@@H]2C[C@@H]3O[C@@H]4C[C@@H]5O[C@@H]6C[C@@H]7O[C@@H]8C[C@@H]9O[C@@H]%10C[C@@H]%11O[C@](C)(CCO)[C@@H](O)C[C@H]%11O[C@H]%10C[C@H]9O[C@H]8CC[C@@]7(C)O[C@@]6(C)CC[C@H](C)[C@H]5O[C@H]4C[C@@]3(C)O[C@H]2CC1=C", "Kd (nM)": 2000}

---

biological target: UniProtKB Q08499; assay: Binding affinity to recombinant PDE4D by surface plasmon resonance assay
pKd: −log10 of the molar value.

{"compound": "C=CCC(=C)/C=C/[C@@](C)(O)[C@H]1O[C@@H]2C[C@@H]3O[C@@H]4C[C@@H]5O[C@@H]6C[C@@H]7O[C@@H]8C[C@@H]9O[C@@H]%10C[C@@H]%11O[C@](C)(CCOS(=O)(=O)O)[C@@H](OS(=O)(=O)O)C[C@H]%11O[C@H]%10C[C@H]9O[C@H]8CC[C@@]7(C)O[C@@]6(C)CC[C@H](C)[C@H]5O[C@H]4C[C@@]3(C)O[C@H]2CC1=C [YESSOTOXIN]", "pKd": 6.00}

---

target: 3',5'-cyclic-AMP phosphodiesterase 4D (Homo sapiens, UniProt Q08499); assay: Binding affinity to recombinant PDE4D by surface plasmon resonance assay
readout: Kd (µM)

{"compound": "OC[C@H]1O[C@@H](CCOCc2ccccc2)[C@H](OCc2ccccc2)C[C@@H]1O", "test system": "3',5'-cyclic-AMP phosphodiesterase 4D (Homo sapiens, UniProt Q08499)", "measured value": 80}
{"compound": "C[C@@]12CC[C@@H]3O[C@@H]4C[C@@H]5O[C@@H]6C[C@H](O)[C@@H](CO)O[C@H]6CC[C@@]5(C)O[C@H]4C[C@H]3O[C@H]1C[C@H]1O[C@@H](CCOCc3ccccc3)[C@H](OCc3ccccc3)C[C@@H]1O2", "test system": "3',5'-cyclic-AMP phosphodiesterase 4D (Homo sapiens, UniProt Q08499)", "measured value": 4.8}
{"compound": "C[C@@]12CC[C@@H]3O[C@H](CO)[C@@H](O)C[C@H]3O[C@H]1C[C@H]1O[C@@H](CCOCc3ccccc3)[C@H](OCc3ccccc3)C[C@@H]1O2", "test system": "3',5'-cyclic-AMP phosphodiesterase 4D (Homo sapiens, UniProt Q08499)", "measured value": 11}
{"compound": "C[C@@]12CC[C@@H]3O[C@H](CO)[C@@H](O)C[C@H]3O[C@H]1C[C@H]1O[C@@H](CCO)[C@H](O)C[C@@H]1O2", "test system": "3',5'-cyclic-AMP phosphodiesterase 4D (Homo sapiens, UniProt Q08499)", "measured value": 29}
{"compound": "C=C(C=O)C[C@@H]1C[C@H](O)[C@]2(C)O[C@@H]3C[C@@H]4O[C@@H]5C[C@]6(C)O[C@]7(C)CC[C@@H]8O[C@@H]9C[C@]%10(C)O[C@@H]%11C(C)=CC(=O)O[C@H]%11C[C@H]%10O[C@H]9C[C@@H](C)[C@H]8O[C@H]7C[C@H]6O[C@H]5C/C=C\\[C@H]4O[C@H]3C[C@H]2O1 [BREVETOXIN]", "test system": "3',5'-cyclic-AMP phosphodiesterase 4D (Homo sapiens, UniProt Q08499)", "measured value": 3.8}
